Test system: LOX IMVI melanoma
assay-explanation: NCI tumour cell line growth inhibition, 48 h; in the data active means GI50 below about 0.43 µM; inactive means the rest
Outcome codes: active, inactive

1. Nc1nc(Nc2ccc(C3CCC(N4CCOCC4)CC3)cc2)nn1-c1ccccn1 (stereo not given): inactive
2. COc1ccc(OC)c(-c2c(C#N)c(N)nc(N3CCOCC3)c2C#N)c1: inactive
3. O=C(/C=C/c1ccc([N+](=O)[O-])cc1)c1ccc2c3c(cccc13)CC2: inactive
4. COc1ccc(/C=C2\CCCC3=C2NC(N)=NC3c2ccc(OC)c(OC)c2)cc1OC (stereo not given): inactive
5. CC1(C)[C@@H](OC(N)=O)[C@H]2O[C@H]2[C@]2(CO)[C@H]3CC[C@]4(C)[C@@H](c5ccc(=O)oc5)[C@@H](Cl)C[C@]4(O)C3=CC[C@@H]12: active
6. CC[C@H](CO)Nc1nc(NCc2ccccc2)n2ncc(C(C)C)c2n1: inactive
7. Nc1[nH]nc2nc(-c3cccs3)cc(C(F)(F)F)c12: inactive
8. Cc1cc(N2CCCC2)nc(N(CCNc2ccnc3cc(Cl)ccc23)Cc2ccco2)n1: inactive
9. COc1cccc(-n2ncc3c(N/N=C/c4ccncc4)ncnc32)c1: inactive
10. O=C1c2ccccc2-c2c1c1ccccc1c(=O)n2CCN1CCOCC1: inactive
11. COc1ccc(C2SC(C)C(=O)N2NC(=O)C(O)c2ccccc2)cc1OC (stereo not given): inactive
12. O=C(NN1C(=O)CSC12CCCC2)c1[nH]c2ccc(Br)cc2c1-c1ccccc1: inactive
13. O=C(Nc1ccc(Cl)cc1)Nc1ccc(Nc2nncc3ccccc23)cc1: inactive
14. C[C@@H]1CC[C@H]2C(C(O)CCCCC(O)C3=C(C(F)(F)F)O[C@@H]4O[C@@]5(C)CC[C@H]6[C@H](C)CC[C@@H]3[C@@]46OO5)=C(C(F)(F)F)O[C@@H]3O[C@@]4(C)CC[C@@H]1[C@]32OO4 (stereo not given in full): inactive
15. Cc1ccc(CNc2c3ccccc3nc3cc(NC(=O)CCN4CCCC4)ccc23)cc1: inactive

----------
Collected TGI values appear next to each entry.
Test system: T-47D breast
assay-explanation: NCI tumour cell line growth inhibition, 48 h
property-measured: TGI

1) O=C(/C=C/c1ccc([N+](=O)[O-])cc1)c1ccc2c3c(cccc13)CC2: > 24.8 µM
2) COc1ccc(/C=C2\CCCC3=C2NC(N)=NC3c2ccc(OC)c(OC)c2)cc1OC (stereo not given): > 60.5 µM
3) COc1cc(/C=C2\Sc3scc(-c4cccc([N+](=O)[O-])c4)[n+]3C2=O)cc(OC)c1OC: 25 µM
4) CCCC(=O)NC(Nc1ccc(S(=O)(=O)Nc2nc(C)cc(C)n2)cc1)(C(F)(F)F)C(F)(F)F: > 100 µM
5) Cc1cn(Cc2cnnn2CC2OC(n3cc(C)c(=O)[nH]c3=O)CC2O)c(=O)[nH]c1=O (stereo not given): > 100 µM
6) CC(C)(Oc1ccc(Cl)cc1)C(=O)N(C(=O)N1CCC(c2ccccc2)CC1)c1ccccc1: > 30.3 µM
7) CSC1=N/C(=C\c2ccco2)C(=O)N1CN1CCOCC1: > 100 µM
8) COc1cc(C2c3cc4c(cc3OC(NNC(N)=O)C2C)OCO4)cc(OC)c1O (stereo not given): > 100 µM
9) CCOC(=O)c1cnc2oc3ccc(O)cc3c2c1-c1ccccc1: > 100 µM
10) CN1CC[C@@H](c2c(O)cc(O)c3c(=O)cc(-c4ccccc4Cl)oc23)[C@@H]1CO: 1.1 µM

----------
System: HCT-116 colon
assay-explanation: NCI tumour cell line growth inhibition, 48 h
property-measured: TGI

1. Nc1ncnc2c1nnn2C1CCC(CP(=O)(O)O)C1 (centres undefined): > 100 µM
2. COc1ccc(C(C#N)Cc2cc(OC)c(OC)c(OC)c2)cc1 (centres undefined): > 100 µM
3. Cc1cc(Cl)ccc1NC(=O)CC/C(CC(=O)C(C)C)=N\NC(=O)C[n+]1ccccc1: > 100 µM
4. COc1ccc(C(SC2C(O)C(CO)OC2n2ccc(N)nc2=O)(c2ccccc2)c2ccc(OC)cc2)cc1 (centres undefined): 29.4 µM
5. COC(=O)C(CSSC[C@H](N/C(C)=C/C(C)=O)C(=O)OC)N/C(C)=C/C(C)=O (some centres undefined): > 100 µM
6. CCCCCCCCCCCCCCCCCCNc1ccn(C2OC(COP(=O)(O)OCC3OC(n4cc(F)c(NCCCCCCCCCCCCCCCCCC)nc4=O)CC3O)C(O)C2O)c(=O)n1 (centres undefined): > 100 µM
7. COc1ccc(-c2c(C#N)c(S)n(NS(=O)(=O)c3ccc(C)cc3)c(=O)c2C#N)cc1: 28 µM
8. CN(C)c1nc2oc(-c3ccccc3)c(-c3ccccc3)c2c2nnnn12: > 100 µM
9. CC(C)(Oc1ccc(Cl)cc1)C(=O)N(C(=O)N1CCC(c2ccccc2)CC1)c1ccccc1: > 100 µM

----------
Test system: ACHN renal
assay-explanation: NCI tumour cell line growth inhibition, 48 h; in the data active = GI50 below about 0.43 µM; inactive = the rest
Outcome codes: active, inactive

1) Cc1ccc(S(=O)(=O)Nc2cccc3[nH]c(C(F)(F)F)nc23)cc1: inactive
2) Nc1nc(Nc2ccc(C3CCC(N4CCOCC4)CC3)cc2)nn1-c1ccccn1 (configuration not stated): inactive
3) COc1ccc(C(=O)/C=C/c2c(Cl)c3c(c(OC)c2Cl)OCC(=O)N3)cc1: inactive
4) CN1CC[C@@H](c2c(O)cc(O)c3c(=O)cc(-c4ccccc4Cl)oc23)[C@@H]1CO: active
5) CCCCN(CCCC)c1ccc(C(=N)c2ccc(N(CCCC)CCCC)cc2)cc1: active
6) NC(=O)c1c(NC(=O)c2ccc3c(c2)OCO3)sc2c1CCC(=O)C2: inactive
7) O=C(Nc1ccc(Cl)cc1)Nc1ccc(Nc2nncc3ccccc23)cc1: inactive

----------
Test system: HCT-116 colon
assay-explanation: NCI tumour cell line growth inhibition, 48 h
Collected TGI values appear next to each entry.
property-measured: TGI

1. C[C@]12CC[C@H]3[C@@H](CC[C@]4(O)C[C@@H](O)CC[C@]34/C=N/O)[C@@]1(O)CC[C@@H]2C1=COC(=O)C1: 0.165 µM
2. CCNC(=O)c1cc(/C=C/c2ccc([N+](=O)[O-])o2)nc2ccccc12: > 100 µM
3. O=c1c2ccccc2nc(-c2ccccc2)n1NC1OC(CO)C(O)C(O)C1O (stereo not given): > 100 µM
4. C/C(CC(=O)Nc1ccc(Cl)cc1)=N\NC(N)=S: > 100 µM
5. C=C(C)C(O)C(O)c1c(OC)ccc2ccc(=O)oc12 (stereo not given): > 100 µM
6. COc1ccc(C2N(NC(=O)c3ccncc3)C(=O)CS2(=O)=O)cc1F (stereo not given): > 100 µM
7. COC(=O)c1cc2ccc(OC(C)=O)c(OC(C)=O)c2cn1: 32.7 µM
8. COc1cccc(-n2ncc3c(N/N=C/c4ccncc4)ncnc32)c1: > 25 µM
9. COc1cc2cc[n+]3c(C)c4cc(OC)c(OC)cc4c([O-])c3c2cc1OC: > 100 µM
10. Cn1cc(C2=C(c3cccc(OCC(O)CO)c3)C(=O)NC2=O)c2ccccc21 (stereo not given): > 25 µM
11. C/C=C(/COC(C)=O)C(=O)OC1C=C(C=O)C(C)(C)C=C1C (stereo not given): > 100 µM
12. CC1=C(CO)C(=O)O[C@@H]([C@@H](C)[C@H]2CC[C@H]3[C@@H]4C[C@@H](O)[C@@]5(O)CC=CC(=O)[C@]5(C)[C@H]4CC[C@]23C)C1: 55.5 µM
13. C[C@]12CCC3[C@@H](CC[C@@H]4c5nonc5CC[C@]34C)C1C/C(=N/O)C2=O (stereo not given in full): > 100 µM
14. O=C(Nc1ccccc1)N(CCCCN(Cc1ccccc1)C(=O)Nc1ccccc1)Cc1ccccc1: > 100 µM
15. O=c1c2cc(I)ccc2nc(-c2cccs2)n1-c1ccc(O)cc1: 27.4 µM
16. Nc1ccccc1CC(O)C(=O)O (stereo not given): > 100 µM
17. COc1ccc(NC(C)=O)cc1N1C(=O)/C(=C\c2cc(OC)c(OC)c(OC)c2)SC1c1ccccc1 (stereo not given): > 100 µM
18. CCCOC(=O)N1CCN(/[N+]([O-])=N/Oc2ccc([N+](=O)[O-])cc2[N+](=O)[O-])CC1: 1.17 µM
19. O=C1CC(S(=O)(=O)O)C=C1Nc1cccc(Cl)c1 (stereo not given): > 100 µM
20. CC[N+]1(C)CCC(O)(c2ccc(Cl)c(Cl)c2)C(C(=O)c2ccc(Cl)c(Cl)c2)C1 (stereo not given): > 10 µM

----------
Test system: HS 578T breast
assay-explanation: NCI tumour cell line growth inhibition, 48 h; in the data active = GI50 below about 0.43 µM; inactive = the rest
Outcome codes: active, inactive

1) Clc1nc(Cl)c2ncn(C/C=C/COc3cccc(OC/C=C/Cn4cnc5c(Cl)nc(Cl)nc54)c3)c2n1: inactive
2) COc1cc(C(=O)NC2CCN(C)CC2)c(F)cc1Nc1ncc2c(n1)N(C1CCCC1)CC(F)(F)C(=O)N2C: active
3) Nc1nc(Nc2ccc(C3CCC(N4CCOCC4)CC3)cc2)nn1-c1ccccn1 (centres undefined): inactive
4) COc1ccc(C2SC(C)C(=O)N2NC(=O)C(O)c2ccccc2)cc1OC (centres undefined): inactive

Cited source: PubChem BioAssay (NCI)
